Assignment: determine reported composite z-score for the given molecules.
Test system: Lefty1
protocol_description: Lefty1 protein binding to printed compounds – biochemical, small-molecule microarray, 635/667 nm fluorescence, primary screen (AID 1139)
measurement_conditions: fluorescence 635/667, higher = more signal
Answers are plain numbers.

Reference set (4 entries):
[[record]]
molecule = "COCCOC(=O)N1C(=O)[C@@]2(c3cc(C#CC4(O)CCCCCC4)ccc31)[C@H](c1ccc(O)cc1)N1[C@H](c3ccccc3)[C@H](c3ccccc3)OC(=O)[C@H]1[C@@H]2C(=O)N1CCCCCCC1"
target_of_assay = "Lefty1"
quantitative_result = 0.851

[[record]]
molecule = "O=C1C=C(c2ccccc2)C(=O)C2=C1CC([C@H]1Oc3ccccc3S(=O)(=O)N3CCC[C@@H]13)=CC2"
target_of_assay = "Lefty1"
quantitative_result = 0.132

[[record]]
molecule = "COCCOC(=O)N1C(=O)[C@@]2(c3cc(C#CCC(C(=O)OC)C(=O)OC)ccc31)[C@H](C(N)=O)[C@H]1C(=O)O[C@H](c3ccccc3)[C@H](c3ccccc3)N1[C@@H]2c1ccc(O)cc1"
target_of_assay = "Lefty1"
quantitative_result = 1

[[record]]
molecule = "O=C1C[C@@](C(=O)NCc2ccccc2)(c2ccc([N+](=O)[O-])cc2)[C@@H](c2ccc(CO)cc2)N1C1CCCCC1"
target_of_assay = "Lefty1"
quantitative_result = 0.294


List composite z-score for every entry below, keeping the order given.
1. C=C(COC)C(=O)CC[C@H](OC(=O)c1cccnc1)c1ccc(OCCO)cc1
2. CN1C(=O)C2C=CC(C(O)c3ccc(-c4ccccc4)s3)N(NC(=O)OC(C)(C)C)C2C1=O (stereo unspecified)
3. Cc1ccc(S[C@]2(C(=O)NCc3ccccc3)CC(=O)N(Cc3ccccc3C(F)(F)F)[C@@H]2c2ccc(CO)cc2)cc1
4. NC(=O)N1C(=O)C2C(C1=O)C1C=C(CCCO)C2C(c2ccc(CN3CCCC3)cc2)N1Cc1cc2c(cc1Br)OCO2 (stereo unspecified)
5. COC(=O)[C@@]1(Cc2ccc(OC)cc2)[C@H]2c3cc(C(=O)N4CCCC4)n(CCn4cc([N+](=O)[O-])nc4C)c3C[C@H]2CN1C(=O)c1ccccc1

Response:
[1.63, -0.0773, -1.51, 0.117, -0.19]

###

protocol_description: plasmodial surface anion channel blockers, osmotic lysis – cell-based, P. falciparum Indochina, OD700, 2 h, primary screen (AID 1155);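 also: lysis reports solute entry through the parasite surface anion channel PSAC; channel blockers reduce lysis of infected cells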
measurement_conditions: P. falciparum Indochina infected erythrocytes, called active from +8 up or from −8 down
Activity calls are given as the source filed them.
// allowed return values: yes (active), no (inactive)

[[record]]
molecule = "COCCOC(=O)N1C(=O)[C@@]2(c3cc(C#CCC(C(=O)OC)C(=O)OC)ccc31)[C@H](C(=O)Nc1nc3ccccc3s1)[C@H]1C(=O)O[C@H](c3ccccc3)[C@H](c3ccccc3)N1[C@@H]2c1ccc(OCCO)cc1"
class = "no"

[[record]]
molecule = "CCOC(=O)C1=CCC(c2cc3ccccc3[nH]2)N(CCN2CC(C(=O)OCC)=CCC2c2cc3ccccc3[nH]2)C1 (centres undefined)"
class = "no"

[[record]]
molecule = "COC(=O)[C@@]1(Cc2ccc(OC)cc2)[C@H]2c3cc(C(=O)N4CCCC4)n(CCn4cc([N+](=O)[O-])nc4C)c3C[C@H]2CN1C(=O)c1ccccc1"
class = "no"

[[record]]
molecule = "C=CCC(OC(C)=O)[C@@H]1[C@@H](N(Cc2cc3ccccc3o2)C(=O)c2cccc3ccccc23)c2cc(OCCCO)ccc2N1C(=O)c1ccc2ccccc2n1 (some centres undefined)"
class = "no"

[[record]]
molecule = "CC1CC/C=C\\[C@H]2OC34C=CCN(c5ccc(Cl)cc5)C(=O)[C@H]3N(CCCCCCO)C(=O)[C@]4(C)C2C(=O)O1 (some centres undefined)"
class = "no"

[[record]]
molecule = "CCOC(=O)C1=CC[C@@H](c2ccccc2)N(S(=O)(=O)c2ccc(C)cc2)[C@H]1c1ccccc1I"
class = "no"


Request: What did the test return for Cc1ccc(S[C@]2(C(=O)NC(C)C)CC(=O)N(C3CCCCC3)[C@@H]2c2ccc(CO)cc2I)cc1 ?
Response: no

Request: Which result was noted for this molecule in the test: CC(C)NC(=O)[C@@H]1c2ccccc2C(=O)N(Cc2ccc(OC(F)(F)F)cc2)[C@H]1c1ccc(CO)cc1
Response: no

###

protocol_description: forskolin-driven CRE-LacZ activity in PC12 – cell-based, CRE-LacZ reporter, forskolin-stimulated, primary screen (AID 1146);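 also: PC12 cells with 6xCRE LacZ reporter stimulated by forskolin 10 µM; beta-galactosidase reporter signal reflecting CREB driven transcription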
measurement_conditions: luminescence, 4.5 h, higher = more signal, called active from +8 up or from −8 down
metric: z-score
Give bare numbers.

Known results for molecules:
[[record]]
molecule = "O=C1c2ccccc2[C@@]2(Cc3ccccc3N(Cc3ccccc3)C2=O)[C@H](c2ccc(CO)cc2)N1Cc1ccccc1Cl"
quantitative_result = 0.164

[[record]]
molecule = "CCOC(=O)C1=CC[C@@H](c2ccccc2)N(S(=O)(=O)c2ccc(C)cc2)[C@H]1c1ccccc1I"
quantitative_result = -0.226

[[record]]
molecule = "Cc1ccc(S[C@]2(C(=O)NCCCN(C)C)CC(=O)N(Cc3ccccc3C(F)(F)F)[C@@H]2c2ccc(CO)cc2I)cc1"
quantitative_result = 1.66

[[record]]
molecule = "NC(=O)NCC#Cc1ccc2c(c1)[C@]1(C(=O)N2)[C@H](c2ccc(OCCO)cc2)N2[C@H](c3ccccc3)[C@H](c3ccccc3)OC(=O)[C@H]2[C@@H]1C(=O)O"
quantitative_result = -0.719

[[record]]
molecule = "CC(C)OC(=O)CC(=O)CC(O)c1cccc([N+](=O)[O-])c1 (stereo not drawn)"
quantitative_result = -0.185

[[record]]
molecule = "CCCNC(=O)[C@@]1(c2ccc([N+](=O)[O-])cc2)CC(=O)N(C(C)C)[C@@H]1c1ccc(CO)cc1"
quantitative_result = 0.282

[[record]]
molecule = "CCCCCC1=C2CNC(CC(C)C)(C(=O)OC)C=C2C(C)C1=O (stereo not drawn)"
quantitative_result = 0.728


Pending molecule:
Entry under test: COc1ccc(C(O)C2C=CC3C(=O)N(c4ccccc4)C(=O)C3N2Nc2ccc([N+](=O)[O-])cc2)c2ccccc12 (stereo not drawn) . Its z-score was -0.838

###

Field: z-score. Provide a value for each of the compounds that follow.
protocol_description: hepatitis C replication reporter changes, two-sided – Huh7 cells, luciferase reporter, HCV replication inhibitor project, primary screen (AID 1109);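 also: huh7 hepatoma cells harbouring a luciferase neomycin HCV replicon reporter; luciferase luminescence as measure of HCV replicon replication; test concentration not given here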
measurement_conditions: Huh7 HCV replicon luciferase reporter, 48 h; higher = more signal

[[record]]
compound = "COc1ccc([Si](C)(C)[C@H]2[C@H](CCO)O[C@@]3(C(=O)N(Cc4ccc(NC(=O)[C@H](C)O)cc4)c4ccccc43)[C@@H]2C)cc1"
metric = "z-score"
result = -5.22

[[record]]
compound = "COc1ccc([Si](C)(C)[C@H]2[C@H](CC(=O)N3Cc4ccccc4C[C@H]3CO)O[C@@]3(C(=O)N(C)c4ccccc43)[C@@H]2C)cc1"
metric = "z-score"
result = -4.34

[[record]]
compound = "CC=CC(O)C1C=CC2C(=O)NC(=O)C2N1Nc1ccc(Cl)cc1Cl (configuration not stated)"
metric = "z-score"
result = -0.0813

[[record]]
compound = "CC1CC/C=C\\[C@H]2OC34C=CCN(Cc5ccccc5)C(=O)[C@H]3N(CCCCCCO)C(=O)[C@@H]4C2C(=O)O1 (some centres not stated)"
metric = "z-score"
result = -0.117

[[record]]
compound = "C=CCC(OC(C)=O)[C@@H]1[C@@H](N(Cc2cccc3ccccc23)C(=O)Cc2ccc(OC)cc2)c2cc(OCCCO)ccc2N1C(=O)Cc1ccc2ccccc2c1 (some centres not stated)"
metric = "z-score"
result = 0.24


I would be grateful if you could provide z-score for each of the following entries.
1. C=C(CCCC)/C(=C/C[C@H](OC(=O)c1ccncc1)c1cccc(OCCO)c1)c1cnc2ccccc2c1
2. [N-]=[N+]=Nc1ccccc1C[C@@]1(C(=O)NCc2ccccc2)N=C(c2ccc(OCCCO)cc2)O[C@@H]1c1ccccc1N=[N+]=[N-]

Response:
1: -2.46; 2: -3.01

###

target_of_assay: Neurogenic locus notch homolog protein 3 (Homo sapiens)
protocol_description: small molecules binding NOTCH3 protein – biochemical, 635/667 nm fluorescence, primary screen (AID 1096)
measurement_conditions: small-molecule microarray, 635 nm fluorescence, higher = more signal
Rule: satisfied for composite z-score not less than 0.1, not satisfied for anything less.

The examples below pair each entry with its known result.
[[record]]
compound = "COc1ccc(C(=O)Nc2cccc(CN3C(=O)[C@@]4(O[C@@H](CC(=O)N5CCC[C@H]5CO)[C@H]([Si](C)(C)c5ccc(OC)cc5)[C@H]4C)c4ccccc43)c2)cc1"
target_of_assay = "Neurogenic locus notch homolog protein 3 (Homo sapiens)"
class = "satisfied"

[[record]]
compound = "NC(=O)N1C(=O)C2C(C1=O)C1C=C(CCCO)C2C(c2ccc(CN3CCCC3)cc2)N1Cc1sc2ccccc2c1Cl (stereo not given)"
target_of_assay = "Neurogenic locus notch homolog protein 3 (Homo sapiens)"
class = "not satisfied"

[[record]]
compound = "COc1ccc([Si](C)(C)[C@H]2[C@H](CC(=O)N3CCC[C@H]3CO)O[C@@]3(C(=O)N(Cc4ccc(N5CCCCC5=O)cc4)c4ccccc43)[C@@H]2C)cc1"
target_of_assay = "Neurogenic locus notch homolog protein 3 (Homo sapiens)"
class = "satisfied"


We now examine a further compound.
Request: // inclusive: composite z-score at least 0.1? input: C=C(C)[C@@H]1CC=C(C(O)C2C=CC3C(=O)N(C)C(=O)C3N2Nc2ccc([N+](=O)[O-])cc2[N+](=O)[O-])CC1 (stereo not given in full)
Response: satisfied
